experiment: in vivo; details: BALB/c nude, mouse, in vivo, iv, total radioactivity, uptake Pancreas
Label Satisfied when tissue uptake at 24 h >= 0.8 %ID/g; otherwise Not satisfied.

Previously resolved entries follow.
compound="C[C@@H](O)[C@H](NC(=O)[C@@H]1CSSC[C@H](NC(=O)[C@@H](Cc2ccccc2)NC(=O)[C@H](CCCCNC(=O)COCCOCCNC(=O)COCCOCCNC(=O)c2cccc(NC(=O)N[C@@H]3CN(C4CCCCC4)c4ccccc4N(CC(=O)C(C)(C)C)C3=O)c2)NC(=O)CN2CCN(CC(=O)O)CCN(CC(=O)O)CCN(CC(=O)O)CC2)C(=O)N[C@@H](Cc2ccc(O)cc2)C(=O)N[C@H](Cc2c[nH]c3ccccc23)C(=O)N[C@@H](CCCCN)C(=O)N[C@@H]([C@@H](C)O)C(=O)N1)C(=O)O [Compound I-42, DOTA-K(-OEG-OEG-Z360)-f]CYwKTC]T-OH]" classname=Satisfied
compound="C[C@@H](O)[C@H](NC(=O)[C@@H]1CSSC[C@H](NC(=O)[C@@H](Cc2ccccc2)NC(=O)[C@H](CCCCNC(=O)CC[C@H](NC(=O)CNC(=O)c2cccc(NC(=O)N[C@@H]3CN(C4CCCCC4)c4ccccc4N(CC(=O)C(C)(C)C)C3=O)c2)C(=O)O)NC(=O)COCCOCCNC(=O)CCC(C(=O)O)N2CCN(CC(=O)O)CCN(CC(=O)O)CCN(CC(=O)O)CC2)C(=O)N[C@@H](Cc2ccc(O)cc2)C(=O)N[C@H](Cc2c[nH]c3ccccc23)C(=O)N[C@@H](CCCCN)C(=O)N[C@@H]([C@@H](C)O)C(=O)N1)C(=O)O (some centres unmarked)" classname=Satisfied
compound=C[C@@H](O)[C@H](NC(=O)[C@@H]1CSSC[C@H](NC(=O)[C@@H](Cc2ccccc2)NC(=O)COCCOCCNC(=O)[C@H](CCCCNC(=O)CC[C@H](NC(=O)CNC(=O)c2cccc(NC(=O)N[C@@H]3CN(C4CCCCC4)c4ccccc4N(CC(=O)C(C)(C)C)C3=O)c2)C(=O)O)NC(=O)CN2CCN(CC(=O)O)CCN(CC(=O)O)CCN(CC(=O)O)CC2)C(=O)N[C@@H](Cc2ccc(O)cc2)C(=O)N[C@H](Cc2c[nH]c3ccccc23)C(=O)N[C@@H](CCCCN)C(=O)N[C@@H]([C@@H](C)O)C(=O)N1)C(=O)O classname=Satisfied
compound="C[C@@H](O)[C@H](NC(=O)[C@@H]1CSSC[C@H](NC(=O)[C@@H](Cc2ccccc2)NC(=O)CCCCCCCNC(=O)[C@H](CCCCNC(=O)c2cccc(NC(=O)N[C@@H]3CN(C4CCCCC4)c4ccccc4N(CC(=O)C(C)(C)C)C3=O)c2)NC(=O)CN2CCN(CC(=O)O)CCN(CC(=O)O)CCN(CC(=O)O)CC2)C(=O)N[C@@H](Cc2ccc(O)cc2)C(=O)N[C@H](Cc2c[nH]c3ccccc23)C(=O)N[C@@H](CCCCN)C(=O)N[C@@H]([C@@H](C)O)C(=O)N1)C(=O)O [Compound I-61, DOTA-K(Z360)-Aoc-f[CYwKTC]T-OH]" classname="Not satisfied"
compound="C[C@@H](O)[C@H](NC(=O)[C@@H]1CSSC[C@H](NC(=O)[C@@H](Cc2ccccc2)NC(=O)[C@H](CCCCNC(=O)c2cccc(NC(=O)N[C@@H]3CN(C4CCCCC4)c4ccccc4N(CC(=O)C(C)(C)C)C3=O)c2)NC(=O)CCOCCOCCOCCNC(=O)CN2CCN(CC(=O)O)CCN(CC(=O)O)CCN(CC(=O)O)CC2)C(=O)N[C@@H](Cc2ccc(O)cc2)C(=O)N[C@H](Cc2c[nH]c3ccccc23)C(=O)N[C@@H](CCCCN)C(=O)N[C@@H]([C@@H](C)O)C(=O)N1)C(=O)O [Compound I-48, DOTA-PEG3-K(Z360)-f[CYwKTC]T-OH]" classname=Satisfied

Answer whether tissue uptake at 24 h of C[C@@H](O)[C@H](NC(=O)[C@@H]1CSSC[C@H](NC(=O)[C@@H](Cc2ccccc2)NC(=O)CCOCCOCCOCCOCCOCCOCCNC(=O)[C@H](CCCCNC(=O)c2cccc(NC(=O)N[C@@H]3CN(C4CCCCC4)c4ccccc4N(CC(=O)C(C)(C)C)C3=O)c2)NC(=O)CN2CCN(CC(=O)O)CCN(CC(=O)O)CCN(CC(=O)O)CC2)C(=O)N[C@@H](Cc2ccc(O)cc2)C(=O)N[C@H](Cc2c[nH]c3ccccc23)C(=O)N[C@@H](CCCCN)C(=O)N[C@@H]([C@@H](C)O)C(=O)N1)C(=O)O [Compound I-40, DOTA-K(Z360)-PEG6-f[CYwKTC]T-OH] is greater than or equal to 0.8 %ID/g. Not satisfied

Is reported tissue uptake at 24 h greater than or equal to 0.8 %ID/g here: C[C@@H](O)[C@H](NC(=O)[C@@H]1CSSC[C@H](NC(=O)[C@@H](Cc2ccccc2)NC(=O)COCCOCCNC(=O)[C@H](CCCCNC(=O)c2cccc(NC(=O)N[C@@H]3CN(C4CCCCC4)c4ccccc4N(CC(=O)C(C)(C)C)C3=O)c2)NC(=O)CN2CCN(CC(=O)O)CCN(CC(=O)O)CCN(CC(=O)O)CC2)C(=O)N[C@@H](Cc2ccc(O)cc2)C(=O)N[C@H](Cc2c[nH]c3ccccc23)C(=O)N[C@@H](CCCCN)C(=O)N[C@@H]([C@@H](C)O)C(=O)N1)C(=O)O [Compound I-37, DOTA-K(Z360)-OEG-f[CYwKTC]T-OH] Not satisfied
